Recorded relative viability, one value per entry.
Tested on: NCI-H460
runDescription: relative viability (nuclei count vs DMSO), 5 days (fraction); higher = more cells survive
runConditions: first compound 50 µM
# print the numeric value only

Would you please look over these solved cases?
>>> measuredvalue("O=C(O)CCCCC(CCSCc1ccccc1)SCc1ccccc1 (centres undefined) [CPI-613] + Cc1cc(Nc2cc(N3CCN(C)CC3)nc(Sc3ccc(NC(=O)C4CC4)cc3)n2)n[nH]1 [Tozasertib] (partner 0.1 µM)")
0.457
>>> measuredvalue("O=C(O)CCCCC(CCSCc1ccccc1)SCc1ccccc1 (centres undefined) [CPI-613] + NC(=O)Nc1cc(-c2cccc(F)c2)sc1C(=O)N[C@H]1CCCNC1 [AZD7762] (partner 0.2 µM)")
0.613
>>> measuredvalue("O=C(O)CCCCC(CCSCc1ccccc1)SCc1ccccc1 (centres undefined) [CPI-613] + CS(=O)(=O)N1CCN(Cc2cc3nc(-c4cccc5[nH]ncc45)nc(N4CCOCC4)c3s2)CC1 [Pictilisib] (partner 1 µM)")
0.347

Please examine the following record next.
Prompt: Indicate the recorded relative viability value for this compound: O=C(O)CCCCC(CCSCc1ccccc1)SCc1ccccc1 (centres undefined) [CPI-613] + O=C(c1cc(Cc2n[nH]c(=O)c3ccccc23)ccc1F)N1CCN(C(=O)C2CC2)CC1 [Olaparib] (partner 8 µM)
Response: 0.373
